tested on: LOX IMVI melanoma; assay: NCI tumour cell line growth inhibition, 48 h; in the data active means GI50 below about 0.43 µM; inactive means the rest
Write down one outcome, taken from True = active, False = inactive

Solved entries (count: 2):
compound | system.name | label
O=C(Nc1cc(-c2cccnc2)nc(NCCCN2CCOCC2)n1)c1cc(Br)cc(C(F)(F)F)c1 | LOX IMVI melanoma | False
COc1cc2c(cc1OC)-c1ncc3cc4c(cc3c1C2)OCO4 | LOX IMVI melanoma | False

QUERY: Recorded test call requested for `C1C[OH+]CC[OH+]CC[OH+]CC[OH+]CC[OH+]CC[OH+]1.[Cl-].[Nb+5]`
RESULT: False

QUERY: Hi, sorry to bother you, what did the test record for COc1c(N2CCN(Cn3c(O)c(N=NC(=O)c4ccncc4)c4cc(F)ccc43)C(C)C2)c(F)cc2c(=O)c(C(=O)O)cn(C3CC3)c12 (stereo not given) ?
RESULT: False

QUERY: How was `CCOC(=O)c1ccccc1-c1c2ccc(=[N+](C)C)cc-2oc2cc(N(C)C)ccc12` classified in this test?
RESULT: True

QUERY: Hi, do you know how `Cc1cc(S(=O)(=O)Nc2nc3cc(Cl)ccc3o2)c(SCc2ccccc2)cc1Cl` came out in this test?
RESULT: False

QUERY: What is the recorded call for this compound in the test? `COc1ccc(NC(=O)/C=C(C)/C=C/C=C(C)\C=C\C2=C(C)CCCC2(C)C)cc1`
RESULT: False

QUERY: Any idea what this test logged for `O=[N+]([O-])c1cc(F)c2cccnc2c1O` ?
RESULT: False

QUERY: // outcome(item) with item = `Cc1sc2ncn(Cc3ccc(Cl)c(Cl)c3)c(=O)c2c1C`
RESULT: False

QUERY: Please state the recorded outcome for this compound: O=[As]c1ccc(C(=O)c2ccc(Oc3ccccc3)cc2)cc1 (stereo not given)
RESULT: True

---

test system: SNB-19 CNS; assay: NCI tumour cell line growth inhibition, 48 h; in the data active = GI50 below about 0.43 µM; inactive = the rest
Parameter call: string, one of 1 = active, 0 = inactive

Solved cases (4 shown):
smiles.data | label
COc1ccc(-c2c(N)n[nH]c2-c2cc(OC)c(OC)c(OC)c2)cc1 | 1
O=C(O)C(=O)CBr | 0
COC(=O)[C@]12CC[C@@H](C)[C@H](C)[C@@H]1C1=CC[C@@H]3[C@@]4(C)CC(=O)[C@H](OC(=O)c5ccco5)[C@@]5(C)COC(=C45)C[C@@]3(C)[C@]1(C)CC2 | 0
O=S(=O)(O)ONC1=NCCN1 | 0

Now look at this one.
QUERY: // outcome(item) with item = `O=C(CC(=O)c1ccccc1)c1ccccc1`
RESULT: 0

---

system: UO-31 renal; experiment: NCI tumour cell line growth inhibition, 48 h; in the data active means GI50 below about 0.43 µM; inactive means the rest
One label from this list, please: active, inactive

Recorded results for 8 molecules are shown here.
smiles.data | label
COc1cccc(C2=C(c3cn(C)c4cccc(OC)c34)C(=O)NC2=O)c1 | inactive
COc1cc(-c2nn(-c3ccc(NC(=O)c4cc(Cl)cc(Cl)c4)cc3)cc2-c2ccncc2)ccc1Cl | inactive
COc1cc2c(cc1OC)-c1ncc3cc4c(cc3c1C2)OCO4 | inactive
Cc1c(C(=O)O[C@H]2[C@@H]3[C@H](C)CC[C@H]3[C@]3(C)O[C@@]2(C2CCCCC2)C[C@H]3OC(=O)CO)ccc2ccccc12 | active
Cc1ccc2c(c1)C(=O)c1c-2n(CCCN=[N+]=[N-])c(=O)c2cc([N+](=O)[O-])ccc12 | inactive
CN1CCN(CCOc2ccc(-c3cnc4c(-c5ccc(F)cc5)cnn4c3)cc2)CC1 | inactive
Oc1ccc(Cl)cc1-c1cc(-c2ccc(F)cc2)n[nH]1 | inactive
C1C[OH+]CC[OH+]CC[OH+]CC[OH+]CC[OH+]CC[OH+]1.[Cl-].[Nb+5] | inactive

Note: attention shifts to another entry.
QUERY: Name the outcome recorded for `CCOC(=O)/C(C#N)=C/Nc1ccc(-c2nc3ccccc3[nH]2)cc1` in the assay.
RESULT: inactive
